- MEASUREMENT TARGET: CaAbp1-D1
- METHOD DESCRIPTION: SPOT peptide array binding signal intensity (averaged, normalized) (arbitrary units (background-subtracted, floor 0; scale differs between SH3 domains)); higher = stronger binding of the SH3 domain to the peptide
Note to self: class labels come from recorded SPOT peptide array binding signal intensity, ranges listed here: bin 0 (below 100), bin 1 (100 to below 900), bin 2 (900 or more)

| BINDER | CATEGORY LABEL |
| --- | --- |
| VATSTSPKLPPRGKQ | bin 0 |
| PKRRAPPPVPKKPSS | bin 2 |
| PVLPPPRSPNRPTLS | bin 1 |
| TYNRTAFQIPGDQSI | bin 0 |
| SLSRRRFSLPSMPNV | bin 1 |
| EAEEAAPQLPSRSSA | bin 0 |
| LFMKGTPEFPKSGFS | bin 1 |
| DKKTKPTPPPKPSHL | bin 2 |
| KKIRLIFTYPSTVGR | bin 1 |
| RRRDFGAPANKRPRR | bin 1 |
| NVLRKILEIPLHSFS | bin 0 |
| STPQTMRQAPKRPDA | bin 0 |
| VQQDSLPKLPFRSWG | bin 0 |
| NLDRSKISLPDFDDE | bin 0 |
| RAPPPVPKKPSSRIA | bin 2 |
